- Test description: gradient 5% acetonitrile 3 min, to 50% in 2 min, to 85% in 15 min, held 3 min, 100 µL/min
- Condition details: column: Zorbax Extend-C18 2.1 x 50 mm; eluents: water / acetonitrile, 0.1% formic acid
Assay readout: RP-LC retention time (s)
Form entry: value (s) — number only.

Some molecules with recorded RP-LC retention time:
COc1ccc(C)cc1NC(=O)C1CCN(S(C)(=O)=O)c2cc(Cl)ccc2O1 (stereo not given) | 1100
O=C1[C@H]2CN(Cc3c[nH]c4ccccc34)C[C@H]2C(=O)N1CCc1ccccc1 | 692
Cn1nnc2cc(C(=O)N3CCC(C(=O)NC4CCCc5ccccc54)CC3)ccc21 (stereo not given) | 728
CCCn1cc(CCNC(=O)Nc2cccc(C)c2)c2cccnc21 | 782

Proceeding to the next molecule to report its RP-LC retention time.
Measured RP-LC retention time of Cc1ccc(-c2ncccc2CNS(=O)(=O)c2ccc(C#N)cc2)cc1 : 688

----------
- Test description: gradient 5% acetonitrile 3 min, to 50% in 2 min, to 85% in 15 min, held 3 min, 100 µL/min
- Condition details: column: Zorbax Extend-C18 2.1 x 50 mm; eluents: water / acetonitrile, 0.1% formic acid
Flag rule - RP-LC retention time less than 800 s flags 1; the remaining entries get 0.

COc1cccc(CNC(=O)NCCc2nc3cccnc3n2C2CCCC2)c1 | 1
CCCC(CCC)C(=O)N1CCCN(C2=NS(=O)(=O)C(c3ccc(C)cc3)=C2C)CC1 | 0
O=C(NCCOc1ccccc1)Nc1cccs1 | 1
Cc1ccc(C(=O)NCCCN2CCCC2)cc1NC(=O)C1=CSCCO1 | 1

Next molecule, please.
Item COCc1c(C(=O)O)nnn1-c1cccc(C(F)(F)F)c1 : RP-LC retention time beneath 800 s, strictly?
1

----------
- Test description: gradient 5% acetonitrile 3 min, to 50% in 2 min, to 85% in 15 min, held 3 min, 100 µL/min
- Condition details: column: Zorbax Extend-C18 2.1 x 50 mm; eluents: water / acetonitrile, 0.1% formic acid
Assay readout: RP-LC retention time (s)
Form entry: value (s) — number only.

Some compounds with recorded RP-LC retention time:
Nc1ccc(OC(=O)Nc2ccc(O)cc2)cc1 | 608
O=C(Cc1nnc(-c2ccc3ncccc3c2)o1)Nc1cccc(Cl)c1 | 768

Proceeding to the next compound to report its RP-LC retention time.
Measured RP-LC retention time of Cc1ccc(Cn2ccn3nc(-c4ccccc4)c(CO)c3c2=O)cc1 : 964

----------
- Test description: gradient 5% acetonitrile 3 min, to 50% in 2 min, to 85% in 15 min, held 3 min, 100 µL/min
- Condition details: column: Zorbax Extend-C18 2.1 x 50 mm; eluents: water / acetonitrile, 0.1% formic acid
Consider the reported RP-LC retention time of an entry and match it to a band in low: < 700 s; moderate: ≥ 700 s and < 800 s; high: ≥ 800 s

CN(CCNC(=O)c1ccc2c(c1)N(S(C)(=O)=O)CC2)C1CCCCC1 | low
Cc1oc2c(c1C(=O)NC(C)c1ccccc1)C1=NC(C)(C)CN1C=N2 (configuration not stated) | low
Cc1ccc(-c2nnc(SCc3noc(CCC(=O)Nc4ccc(F)c(Cl)c4)n3)o2)cc1 | high

Place this compound in its band: CCn1cc(CCN2CCC(C(=O)NC(C)C)CC2)c2cccnc21
low

Place this compound in its band: CCN1CCN(c2cc(-c3ccc(F)cc3)c3c(n2)CCCCCC3)CC1
moderate

Place this compound in its band: CN(Cc1ccco1)S(=O)(=O)c1ccc(C(=O)Nc2cccc(Cl)c2Cl)cc1
high

Place this compound in its band: CCn1cc(S(=O)(=O)NCCc2noc(-c3ccncc3)n2)cn1
low

Place this compound in its band: COc1cc(-c2noc(CCn3nc(-c4ccc(Cl)cc4)ccc3=O)n2)cc(OC)c1OC
high

Place this compound in its band: Cc1cc(C)c(S(=O)(=O)NCc2c(-c3ccccc3)nc3sc(C)nn23)c(C)c1
high

Place this compound in its band: CS(=O)(=O)N1CCC(C(=O)Nc2ccc(F)cc2F)Oc2ccc(Cl)cc21 (configuration not stated)
high

Place this compound in its band: O=C1CCCc2nc(N3CCN(c4ccccn4)CC3)ncc21
low

Place this compound in its band: CCOC(=O)c1nc(NC2CCCCCC2)c2ccccc2n1
high

Place this compound in its band: CCOc1ccc(NC(=O)C2CC(=O)N(c3n[nH]c4cccc(F)c34)C2)cc1 (configuration not stated)
moderate

Place this compound in its band: CC(C)CN1Cc2ccccc2-n2ccnc2C12CCN(C(=O)C1CC1)CC2
low

Place this compound in its band: N#Cc1cnn2ccn(C3OC(CO)C(O)C3O)c12 (configuration not stated)
low

Place this compound in its band: Cc1cc(-c2ncc(CC(=O)Nc3ccc(-c4cnccn4)cn3)cc2C)ccn1
low

Place this compound in its band: O=C1COc2ccc(S(=O)(=O)N3CCC(C(=O)N4CCN(c5ccccc5)CC4)CC3)cc2N1
moderate
